For each record, write down the corresponding inhibition of growth at 25 µM.
Tested on: Trypanosoma cruzi
Test: Antitrypanosomal activity against Trypanosoma cruzi Tulahuen 2 epimastigotes assessed as inhibition of parasite growth at 25 uM relative to control
Assay type: functional
Details: read-out: GI
Reply with just the number (in %).

Given the molecule N#Cc1c(NC(=O)c2cccs2)[n+]([O-])c2cc(F)c(F)cc2[n+]1[O-] , what is its reported inhibition of growth at 25 µM?
92.4

Given the molecule N#Cc1c(-c2ccc(Cl)cc2)[n+]([O-])c2ccc(F)cc2[n+]1[O-] , what is its reported inhibition of growth at 25 µM?
85.4

Given the molecule N#Cc1c(-c2ccc(OC(F)(F)F)cc2)[n+]([O-])c2cc(Cl)c(Cl)cc2[n+]1[O-] , what is its reported inhibition of growth at 25 µM?
82

Given the molecule CC1CS(=O)(=O)CCN1/N=C/c1ccc([N+](=O)[O-])o1 (centres undefined) , what is its reported inhibition of growth at 25 µM?
100
